Cited source: patent US6972296B2

system.tested: α4β1 integrin (Homo sapiens, UniProt P05556+P13612)
Construct: endogenous in cells; host or cells: Ramos cells
Sequence (P13612 34-1032): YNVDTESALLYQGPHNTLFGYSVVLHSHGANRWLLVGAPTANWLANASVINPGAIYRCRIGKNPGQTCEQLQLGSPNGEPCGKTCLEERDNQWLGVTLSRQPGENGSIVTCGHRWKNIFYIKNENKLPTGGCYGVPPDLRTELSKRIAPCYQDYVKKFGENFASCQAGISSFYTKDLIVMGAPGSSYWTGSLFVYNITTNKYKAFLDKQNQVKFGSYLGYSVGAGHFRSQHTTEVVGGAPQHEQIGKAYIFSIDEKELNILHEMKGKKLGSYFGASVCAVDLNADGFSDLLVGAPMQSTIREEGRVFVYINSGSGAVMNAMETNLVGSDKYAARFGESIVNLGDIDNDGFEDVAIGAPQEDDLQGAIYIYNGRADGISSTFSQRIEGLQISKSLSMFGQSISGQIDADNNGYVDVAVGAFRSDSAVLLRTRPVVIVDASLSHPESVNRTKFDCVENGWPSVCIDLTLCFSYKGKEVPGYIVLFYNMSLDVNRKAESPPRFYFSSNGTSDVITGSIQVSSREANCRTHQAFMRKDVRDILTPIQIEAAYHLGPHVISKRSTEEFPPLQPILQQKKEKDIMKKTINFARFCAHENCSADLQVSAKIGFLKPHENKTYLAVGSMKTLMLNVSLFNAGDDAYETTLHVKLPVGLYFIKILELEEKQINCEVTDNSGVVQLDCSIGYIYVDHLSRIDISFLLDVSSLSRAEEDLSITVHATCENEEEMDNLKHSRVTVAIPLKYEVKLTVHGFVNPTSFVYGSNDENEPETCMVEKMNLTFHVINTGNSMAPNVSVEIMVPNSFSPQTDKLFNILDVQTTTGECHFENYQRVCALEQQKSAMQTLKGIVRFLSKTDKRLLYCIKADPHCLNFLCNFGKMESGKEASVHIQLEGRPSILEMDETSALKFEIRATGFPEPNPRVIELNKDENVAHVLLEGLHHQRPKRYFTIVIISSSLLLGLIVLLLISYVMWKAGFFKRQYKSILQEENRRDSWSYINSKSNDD
Sequence (P05556 21-798): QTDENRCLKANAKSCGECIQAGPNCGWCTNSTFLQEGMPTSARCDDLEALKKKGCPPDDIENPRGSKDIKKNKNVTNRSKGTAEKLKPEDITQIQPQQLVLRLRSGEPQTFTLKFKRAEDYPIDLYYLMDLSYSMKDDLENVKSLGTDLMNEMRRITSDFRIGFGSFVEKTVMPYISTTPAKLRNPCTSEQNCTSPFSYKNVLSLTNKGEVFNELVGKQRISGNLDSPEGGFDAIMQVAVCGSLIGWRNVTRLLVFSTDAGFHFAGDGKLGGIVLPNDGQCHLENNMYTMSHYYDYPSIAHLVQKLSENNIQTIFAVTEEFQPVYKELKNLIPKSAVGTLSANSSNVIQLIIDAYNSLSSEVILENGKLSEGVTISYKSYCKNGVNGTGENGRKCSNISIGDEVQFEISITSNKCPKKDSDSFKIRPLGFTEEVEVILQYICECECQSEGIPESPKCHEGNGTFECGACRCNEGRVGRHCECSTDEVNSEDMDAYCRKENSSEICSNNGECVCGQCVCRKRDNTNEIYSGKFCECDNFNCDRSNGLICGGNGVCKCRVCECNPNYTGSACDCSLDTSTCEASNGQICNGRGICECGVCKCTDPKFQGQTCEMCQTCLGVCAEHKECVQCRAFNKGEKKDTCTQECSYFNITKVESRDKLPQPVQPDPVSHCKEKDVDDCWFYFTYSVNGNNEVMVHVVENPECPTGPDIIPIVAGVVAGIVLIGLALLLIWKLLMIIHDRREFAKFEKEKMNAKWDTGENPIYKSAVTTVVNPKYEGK
measurement.notes: Adhesion of calcein-labeled Ramos cells to CS1 (fibronectin) peptide conjugated ovalbumin
Type: cell-based
details: Table 7; Ramos cell adhesion to CS1 conjugated ovalbumin; dose required to give 50% inhibition
The entries below are paired with their reported log10 of IC50.
quantity.measured: log10 of IC50 (log10 of the value in nM)

- compound: "O=C(O)C[C@H](NC(=O)Nc1c(O)c2c(n(Cc3ccccc3Cl)c1=O)CCC2)c1cccc(OC2CC2)c1"
  log10 of IC50: 0.60
- compound: "Cc1cn(Cc2ccccc2Cl)c(=O)c(NC(=O)N[C@@H](CC(=O)O)c2ccc3c(c2)CCO3)c1O"
  log10 of IC50: 0.78
- compound: "COc1cc([C@H](CC(=O)O)NC(=O)Nc2c(O)c(C)cn(Cc3ccccc3Cl)c2=O)cc(OC)c1C"
  log10 of IC50: 1.08
- compound: "Cn1ccc2cc([C@H](CC(=O)O)NC(=O)Nc3c(O)c4c(n(Cc5ccccc5Cl)c3=O)CCC4)ccc21"
  log10 of IC50: 0.60
- compound: "CCOc1cccc(Cl)c1Cn1c2c(c(O)c(NC(=O)N[C@@H](CC(=O)O)c3ccccc3)c1=O)CCC2"
  log10 of IC50: 0.30
- compound: "CC(C)Oc1cc([C@H](CC(=O)O)NC(=O)Nc2c(O)c3c(n(Cc4ccccc4Cl)c2=O)CCC3)ccc1Cl"
  log10 of IC50: 1.58
- compound: "Cc1cccc(Cl)c1Cn1c2c(c(O)c(NC(=O)N[C@@H](CC(=O)O)c3ccc4c(ccn4C)c3)c1=O)CCC2"
  log10 of IC50: 0.48
- compound: "CS(=O)(=O)Nc1cccc([C@H](CC(=O)O)NC(=O)Nc2c(O)c3c(n(Cc4ccccc4Cl)c2=O)CCC3)c1"
  log10 of IC50: 0.48
- compound: "O=C(O)CC(NC(=O)Nc1c(O)c2c(n(Cc3ccccc3Cl)c1=O)CCC2)c1ccco1 (stereo not shown)"
  log10 of IC50: 0.70
- compound: "CCN(CC)c1cccc([C@H](CC(=O)O)NC(=O)Nc2c(O)c3c(n(Cc4ccccc4Cl)c2=O)CCC3)c1"
  log10 of IC50: 0.48
- compound: "COc1ccn(Cc2ccccc2Cl)c(=O)c1N(C)C(=O)N[C@@H](CC(=O)O)c1ccc(C)cc1"
  log10 of IC50: 3.30
- compound: "Cc1ccc([C@H](Cc2nnn[nH]2)NC(=O)Nc2c(O)c(C)cn(Cc3ccccc3Cl)c2=O)cc1"
  log10 of IC50: 3.78
- compound: "CCOc1cccc(Cl)c1Cn1cc(C)c(O)c(NC(=O)N[C@@H](CC(=O)O)c2ccc3c(c2)CCO3)c1=O"
  log10 of IC50: 0.30
- compound: "CCOc1cccc(Cl)c1Cn1c(C)c(CC)c(O)c(NC(=O)N[C@@H](CC(=O)O)c2ccc(C)cc2)c1=O"
  log10 of IC50: 0.60
- compound: "Cc1cn(Cc2ccccc2Cl)c(=O)c(NC(=O)N[C@@H](CC(=O)O)c2cccc(C(F)F)c2)c1O"
  log10 of IC50: 1.30
- compound: "Cc1cccc(Cl)c1Cn1c2c(c(O)c(NC(=O)N[C@@H](CC(=O)O)c3ccc(C4CC4)cc3)c1=O)CCC2"
  log10 of IC50: 1.28
- compound: "Cc1cn(Cc2ccccc2Cl)c(=O)c(NC(=O)N[C@@H](CC(=O)O)c2ccc3c(c2)CCC3)c1O"
  log10 of IC50: 1.26
- compound: "CCOc1cccc(Cl)c1Cn1c(C)c(C)c(O)c(NC(=O)N[C@@H](CC(=O)O)c2ccccc2)c1=O"
  log10 of IC50: 0.60
- compound: "CCOc1cc([C@H](CC(=O)O)NC(=O)Nc2c(O)c3c(n(Cc4c(C)cccc4Cl)c2=O)CCC3)ccc1Cl"
  log10 of IC50: 1.40

----------
system.tested: α4β1 integrin (Homo sapiens, UniProt P05556+P13612)
Construct: endogenous in cells; host or cells: Ramos cells
measurement.notes: Adhesion of calcein-labeled Ramos cells to CS1 (fibronectin) peptide conjugated ovalbumin
Assay type: cell-based
details: Table 7; Ramos cell adhesion to CS1 conjugated ovalbumin; dose required to give 50% inhibition
The entries below are paired with their reported IC50.

- smiles: "CCOc1cc([C@H](CC(=O)O)NC(=O)Nc2c(O)c3c(n(Cc4ccccc4Cl)c2=O)CCC3)ccc1-c1ccccc1"
  IC50 (µM): 0.02
- smiles: "O=C(O)C[C@H](NC(=O)Nc1c(O)c2c(n(Cc3ccccc3Cl)c1=O)CCC2)c1cccc(OC(F)(F)C(F)F)c1"
  IC50 (µM): 0.004
- smiles: "Cc1ccc([C@H](CC(=O)O)NC(=O)Nc2c(O)c(C)cn(Cc3c(Cl)cccc3OCC3CCCC3)c2=O)cc1"
  IC50 (µM): 0.02
- smiles: "Cc1ccc(-c2cccc([C@H](CC(=O)O)NC(=O)Nc3c(O)c(C)cn(Cc4ccccc4Cl)c3=O)c2)cc1"
  IC50 (µM): 0.023

----------
system.tested: α4β1 integrin (Homo sapiens, UniProt P05556+P13612)
Construct: endogenous in cells; host or cells: Ramos cells
measurement.notes: Adhesion of calcein-labeled Ramos cells to CS1 (fibronectin) peptide conjugated ovalbumin
Assay type: cell-based
details: Table 7; Ramos cell adhesion to CS1 conjugated ovalbumin; dose required to give 50% inhibition
Text: A procedure in which a 26-amino acid peptide containing the CS1 sequence of fibronectin with an N-terminal Cys ([…]) was coupled to maleimide activated ovalbumin was used to determine the efficacy of the compounds synthesized. […] Following three washes with binding buffer, adherent cells were lysed and quantitated using a fluorometer. […]

- molecule: "O=C(O)C[C@H](NC(=O)Nc1c(O)c2c(n(Cc3ccccc3Cl)c1=O)CCC2)c1cc(F)cc(F)c1"
  system.tested: "α4β1 integrin (Homo sapiens, UniProt P05556+P13612)"
  IC50 [nM]: 7
- molecule: "CCn1c2ccccc2c2cc([C@H](CC(=O)O)NC(=O)Nc3c(O)c4c(n(Cc5ccccc5Cl)c3=O)CCC4)ccc21"
  system.tested: "α4β1 integrin (Homo sapiens, UniProt P05556+P13612)"
  IC50 [nM]: 13
- molecule: "CCOc1cccc(Cl)c1Cn1cc(C)c(O)c(NC(=O)NC(CC(=O)O)c2ccc3ccccc3c2)c1=O (stereo not shown)"
  system.tested: "α4β1 integrin (Homo sapiens, UniProt P05556+P13612)"
  IC50 [nM]: 13
- molecule: "Cc1cccc(Cl)c1Cn1c2c(c(O)c(NC(=O)N[C@@H](CC(=O)O)c3cccc(OC(F)F)c3)c1=O)CCC2"
  system.tested: "α4β1 integrin (Homo sapiens, UniProt P05556+P13612)"
  IC50 [nM]: 3

----------
system.tested: α4β1 integrin (Homo sapiens, UniProt P05556+P13612)
Construct: endogenous in cells; host or cells: Ramos cells
measurement.notes: Adhesion of calcein-labeled Ramos cells to CS1 (fibronectin) peptide conjugated ovalbumin
Assay type: cell-based
details: Table 6; Ramos cell adhesion to CS1 conjugated ovalbumin, 30 minutes at 37° C.
pIC50: −log10 of the molar value.
Label Satisfied when pIC50 is at or above 8; anything below gets Not satisfied.

- molecule: "Cc1ccc([C@H](CC(=O)O)NC(=O)Nc2c(O)c(C)cn(Cc3c(Cl)cccc3Cl)c2=O)cc1"
  classification: "Not satisfied"
- molecule: "COc1ccc([C@H](CC(=O)O)NC(=O)Nc2c(O)c(C)cn(Cc3ccccc3Cl)c2=O)cc1"
  classification: "Satisfied"
- molecule: "COc1ccc(C(C)=O)cc1Cn1ccc(O)c(NC(=O)N[C@@H](CC(=O)O)c2ccc(C)cc2)c1=O"
  classification: "Not satisfied"
- molecule: "CCOc1cccc([C@H](CC(=O)O)NC(=O)Nc2c(O)c(CC)cn(Cc3c(Cl)cccc3OCC)c2=O)c1"
  classification: "Satisfied"
- molecule: "COc1cccc(Cl)c1Cn1cc(C)c(O)c(NC(=O)N[C@@H](CC(=O)O)c2ccc(C)cc2)c1=O"
  classification: "Satisfied"
- molecule: "Cc1ccc([C@H](CC(=O)O)NC(=O)Nc2c(O)c3c(n(Cc4ccc(Cl)cc4)c2=O)CCC3)cc1"
  classification: "Not satisfied"
- molecule: "O=C(O)C[C@@H](CCc1ccccc1)NC(=O)Nc1c(O)ccn(Cc2ccccc2Cl)c1=O"
  classification: "Not satisfied"
- molecule: "CCOc1ccc([C@H](CC(=O)O)NC(=O)Nc2c(O)c(C)nn(Cc3ccccc3Cl)c2=O)cc1OCC"
  classification: "Satisfied"
- molecule: "Cc1ccc([C@H](CC(=O)O)NC(=O)Nc2c(O)c3c(n(Cc4ccccc4Cl)c2=O)CCC3)cc1C"
  classification: "Not satisfied"
- molecule: "O=C(O)CC(NC(=O)Nc1c(O)ccn(Cc2ccccc2Cl)c1=O)c1cccs1 (centres unmarked)"
  classification: "Not satisfied"
- molecule: "CCOc1ccc([C@H](CC(=O)O)NC(=O)Nc2c(O)c(C)cn(Cc3c(Cl)cccc3OC)c2=O)cc1OCC"
  classification: "Satisfied"
- molecule: "Cc1ccc([C@H](CC(=O)O)NC(=O)Nc2c(O)ccn(Cc3cccc(S(C)(=O)=O)c3)c2=O)cc1"
  classification: "Not satisfied"
